All values here come from patent US20230295213A1.

# Assay remarks: Pharmacokinetic evaluation in ICR mice, intravenous
# Type: in vivo
# Applied conditions: mouse; ICR male mice, 1.0 mg/kg intravenous, plasma
Readings of log10 of AUC(0-t) for the listed compounds
Remember, log10 of AUC(0-t), in ng·h/mL.

Worked examples follow.
{"Compound": "O=P(O)(O)CP(=O)(O)OC[C@H]1O[C@@H](n2cnc3c(N4CC5(CCCC5)c5ccccc54)nc(Cl)nc32)[C@@H](O)C1O (some centres unmarked)", "Readout number": 5.03}
{"Compound": "O=P(O)(O)CP(=O)(O)OC[C@H]1O[C@@H](n2cnc3c(N4CCC5(CCCCC5)C4)nc(Cl)nc32)[C@@H](O)C1O (some centres unmarked) [Compound b, reference compound]", "Readout number": 3.96}
{"Compound": "O=P(O)(O)CP(=O)(O)OC[C@H]1O[C@@H](n2cnc3c(N4CC5(CCc6ccccc65)C4)nc(Cl)nc32)[C@@H](O)C1O (some centres unmarked)", "Readout number": 3.80}
{"Compound": "C[C@H](Nc1cc(Cl)nc2c1cnn2[C@@H]1O[C@H](COP(=O)(O)CP(=O)(O)O)[C@@H](O)[C@H]1O)c1ccccc1F [Compound a, AB680, reference compound]", "Readout number": 4.38}

Then this compound:
Query string: Report log10 of AUC(0-t) for O=P(O)(O)CP(=O)(O)OC[C@H]1O[C@@H](n2cnc3c(N4CC5(CCC5)c5ccccc54)nc(Cl)nc32)[C@@H](O)C1O (some centres unmarked) please.
Result string: 4.97
